system name: benzodiazepine receptor
method notes: Displacement of tritiated diazepam from benzodiazepine receptor (crude synaptosomal membranes of rat cerebral cortex)
condition set: tritiated diazepam 2 nM, 4° C., 20 minutes, Tris-HCl pH 7.4
pKi: −log10 of the molar value.
assay endpoint: pKi

[
  {
    "compound": "O=c1cc2c(nn1-c1ccc(Cl)cc1)-c1cc(Cl)ccc1CC2 [Example 17]",
    "system name": "benzodiazepine receptor",
    "pKi": 7.33
  },
  {
    "compound": "Cc1ccc(N2N=C3c4cc(C)ccc4CCC3CC2=O)cc1 (centres unmarked) [Example 11]",
    "system name": "benzodiazepine receptor",
    "pKi": 7.80
  },
  {
    "compound": "O=C1CC2CCc3ccc(Cl)cc3C2=NN1c1ccccc1 (centres unmarked) [Example 1]",
    "system name": "benzodiazepine receptor",
    "pKi": 6.92
  }
]

1. O=c1cc2c(nn1-c1ccccc1)-c1ccccc1CC2 [Example 3]
2. O=C1CC2CCc3ccc(F)cc3C2=NN1c1ccc(Cl)cc1 (centres unmarked) [Example 20]
Challenge: Would you let me know which has the greater pKi value, 1 or 2 ? Choose, then provide that item's label.
Response given: 2
(2: 7.47, 1: 6.89)

###

system name: benzodiazepine receptor
method notes: Displacement of tritiated diazepam from benzodiazepine receptor (crude synaptosomal membranes of rat cerebral cortex)
condition set: tritiated diazepam 2 nM, 4° C., 20 minutes, Tris-HCl pH 7.4
assay endpoint: Ki (nM)

Example results:
[
  {
    "compound": "Cc1ccc2c(c1)C1=NN(c3ccc(Cl)cc3)C(=O)CC1CC2 (stereo not drawn) [Example 12]",
    "Ki, nM": 26
  },
  {
    "compound": "O=c1cc2c(nn1-c1ccc(Cl)cc1)-c1cc(F)ccc1CC2 [Example 19]",
    "Ki, nM": 45
  },
  {
    "compound": "O=c1cc2c(nn1-c1ccccc1)-c1cc(F)ccc1CC2 [Example 30]",
    "Ki, nM": 220
  }
]

a. Cc1ccc(-n2nc3c(cc2=O)CCc2ccc(Cl)cc2-3)cc1 [Example 15]
b. O=c1cc2c(nn1-c1ccc([N+](=O)[O-])cc1)-c1cc(Cl)ccc1CC2 [Example 18]
c. Cc1ccc(N2N=C3c4cc(Cl)ccc4CCC3CC2=O)cc1 (stereo not drawn) [Example 16]
Challenge: Please list these in order of increasing Ki. Thank you! Your reply should list the labels following the order given in the request.
Response given: c, a, b
(c: 14 nM, a: 28 nM, b: 90 nM)

a. O=c1cc2c(nn1-c1ccccc1)-c1cc(Cl)ccc1CC2 [Example 2]
b. COc1ccc2c(c1)C1=NN(c3ccc(C)cc3)C(=O)CC1CC2 (stereo not drawn) [Example 14]
Challenge: I'm curious, which of these has a smaller Ki number: a or b ? Provide the label of your selected option as the answer.
Response given: b

Source of measurements: patent US4782057A
